Target: T1, Avi/His-HuIL18BPa (recombinant human IL-18BP isoform A with Avi and poly-His tags) (human, biotinylated with BirA on the Avi tag in some assays)
T1 construct: also called human IL-18BP-Avi-His
T1 chain: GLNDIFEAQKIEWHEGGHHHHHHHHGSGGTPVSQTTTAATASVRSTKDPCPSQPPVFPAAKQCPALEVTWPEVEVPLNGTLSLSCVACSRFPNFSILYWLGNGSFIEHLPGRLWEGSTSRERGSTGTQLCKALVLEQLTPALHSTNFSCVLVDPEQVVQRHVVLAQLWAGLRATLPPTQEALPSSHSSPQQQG
Experiment: ELISA, coated IL-18BP
Let's look at some binders and their measured ELISA binding ratio (fold-change over background).
A number alone suffices; assume fold over background.

Answered cases to consult:
# Binder, Value Observed
records = [
    ("anti-IL18BP antibody BP-08 (antibody, human IgG1, V domains shown) VH: QVQLQQPGAELVKPGASVKLSCKVSGYTFTSYWMHWVKQRPGQGLEWIGMIDPNSDSSRYNEKFKNRATLTADKSSSTAFMQFSSLTSEDSAVYYCARSRLGQDYWGQGTTLTVSS VL: DIVMTQSHKFMSTSVGDRVSITCKASQDVSTAVAWYQQKPGQSPKLLIYWASTRHTGVPDRFTGSESGTDYTLIISSVQAEDLALYYCQQHFSTPYTFGGGTKLEIK", 38.8),
    ("anti-IL18BP antibody BP-11 (antibody, human IgG1, V domains shown) VH: QVQLQQSGAELAKPGASVKMSCKASGYTFTNYWMHWVKQRPGQGLEWIGHIDPSTGYTEYNQKFKDKATLTADKSSSTAYMQLSSLTSEDSAVYYCARGLGGLFGYWGQGTLVTVSA VL: DIQMTQSPSSLSASLGGKVTITCKASQDINKFIAWYQHKPGKGPRLLIHHTSTLMPGIPSRFSGSGSGREYSFSISNLEPEDIATYYCLQYDNLLWTFGGGTKLEIR", 44.4),
    ("anti-IL18BP antibody BP-13 (antibody, human IgG1, V domains shown) VH: QVQLQQSGAELVRPGASVTLSCKASGYTFTDYEMHWVKQTPVHGLEWIGPIDPETGDTAYNQKFKGQATLTADKSSSTAYMELSSLTSEDSAVYYCTRGSRGVFDYWGQGTALTVSS VL: DIVMTQSHKFMSTSVGDRVSITCKASQDVGTAVAWYQQKPGQSPKLLIYWASARHTGVPDRFTGSGSGTDFTLTISNVQSEDLADYFCQHYFNFPRTFGGGTKLEIT", 44.7),
]

Item under review: anti-IL18BP antibody BP-05 (antibody, human IgG1, V domains shown) VH: EVQLQQSGPELVKPGASVKIPCKASGYTFTDYNMDWVKQSHGKSLEWIGNINTNNGGTVYNQKFKDKATLTVDKSSSTAYMELRSLTSEDTAVYYCARSDTTVVASRYYALDYWGQGTSVTVSS VL: DIVLTQSPASLAMSLGKRATISCRASESVSIIGTDLIHWYQQKPGQPPKLLIYHASNLETGVPARFSGSGSRTDFTLTIDPVEEDDVAIYYCLQSRKIPPTFGGGTKLEIK . Reported ELISA binding ratio (fold-change over background)?
38.3

Okay, and anti-IL18BP antibody BP-14 (antibody, human IgG1, V domains shown) VH: QVQLVQSGAEVKKPGASVKVSCKASGYTFTGYYMHWVRQAPGQGLEWMGIINPRGGSTSHAQKFQGRVTMTRDTSTSTVYMELSSLRSEDTAVYYCARGLELHWFDPWGQGTLVTVSS VL: DIQMTQSPSSLSASVGDRVTITCRASQNIRSWLAWYQQKPGKAPKLLIYAASSLQSGVPSRFSGSGSGTDFTLTISSLQPEDFATYYCQQANSFPYTFGQGTKLEIK ?
36.3

And anti-IL18BP antibody BP-03 (antibody, human IgG1, V domains shown) VH: EVQLQQSGPELVKPGASVKIPCKASGYTFTDYNMDWVKQSHGKSLEWIGNINTDNGGTVYNQKFKGKATLTVDQSSSTAYMELRSLTSEDTAVYYCARSDTTVVASRYYAMDYWGQGTSVTVSS VL: DIVLTQSPASLAMSLGKRATISCRASESVSIIGTNLIHWYQQKPGQPPKLLIYHASNLETGVPARFSGSGSRTDFTLTIDPVEEDDVAIYYCLQSRKIPPTFGGGTKLEIK ?
41.9

How about this binder: anti-IL18BP antibody BP-12 (antibody, human IgG1, V domains shown) VH: EVQLQQSGPELVKPGASVKMSCKTSGYTFTEYTMHWVKQSHGKSLEWIGGVNPNNGGTTYNQKFRDKATLTVDKSSSTTYMEVRTLTSDDSAVYYCAPLWRVFDYWGQGTTLTVSS VL: DIVMTQSHKFMSSSVGDRVSITCKASQDVGTAVAWYQQKPGQSPKLLIYWASTRHTGVPDRFTGSGSGTDFTLTISNVQSEDLADYFCHQFSRYPLTFGAGTKLELK
43.2

And anti-IL18BP antibody BP-02 (antibody, human IgG1, V domains shown) VH: EVQLQQSGPELVKPGASVKIPCKASGYTFTDYNMDWVKQSHGKSLEWIGNINTNNGGTVYNQKFKGKATLTVDKSSSTAYMELRSLTSEDTAVYYCARSDTTVVASRYYAMDYWGQGTSVTVSL VL: DIVLTQSPASLAMSLGKRATISCRASESVSIIATNLIHWYQQKPGQPPKLLIYHASNLETGVPARFSGSGSRTDFTLTIDPVEKDDVAIYYCLQSRKIPPTFGGGTKLEIK ?
35.1
